The values you see were collected from the supplement of paper PMC5844555.

# Tested on: HRAS
# test details: 3' UTR reporter interaction score (median-centred robust z-score of log2 firefly/Renilla activity); higher = less repression of the 3' UTR reporter
# reported conditions: HEK293T; 48 h
Label false if 3' UTR reporter interaction score falls below 0.1; label true in every other case.

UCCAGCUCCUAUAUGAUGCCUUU; false

Could you verify whether the entry UUGAGAAUGAUGAAUCAUUAGG shows 3' UTR reporter interaction score of no less than 0.1? true

Hi, just wondering whether AGUAUGUUCUUCCAGGACAGAAC shows 3' UTR reporter interaction score of 0.1 or higher. true

Evaluate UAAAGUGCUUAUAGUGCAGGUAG : 3' UTR reporter interaction score at minimum 0.1? true

# check: 3' UTR reporter interaction score of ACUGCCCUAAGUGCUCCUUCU is greater than or equal to 0.1 false

Kindly determine if 3' UTR reporter interaction score recorded for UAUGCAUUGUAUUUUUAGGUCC is above or exactly 0.1. true

Reported 3' UTR reporter interaction score at or above 0.1? AUCAUAGAGGAAAAUCCACGU false

Check if 3' UTR reporter interaction score >= 0.1 (inclusive). Item: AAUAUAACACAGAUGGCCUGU true

Could you please find out whether AGGCUGCGGAAUUCAGGAC has 3' UTR reporter interaction score that meets 0.1 or exceeds it? false

###

# Test system: TP53
# test details: 3' UTR reporter interaction score (median-centred robust z-score of log2 firefly/Renilla activity); higher = less repression of the 3' UTR reporter
# reported conditions: HEK293T; 48 h
Hi, to clarify the labels: yes covers 3' UTR reporter interaction score from -0.2 upward, no covers anything below -0.2.

UCUAGGCUGGUACUGCUGA; yes
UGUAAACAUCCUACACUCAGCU; no

Test whether the sequence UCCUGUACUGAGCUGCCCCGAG records 3' UTR reporter interaction score of -0.2 or higher. yes

Please indicate if the recorded 3' UTR reporter interaction score for CUCUAGAGGGAAGCGCUUUCUGUU meets or exceeds -0.2. yes

Is reported 3' UTR reporter interaction score greater than or equal to -0.2 here: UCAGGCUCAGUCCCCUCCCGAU yes

Reported 3' UTR reporter interaction score at or above -0.2? GGCUAGCAACAGCGCUUACCU yes

I'd appreciate it if you could say whether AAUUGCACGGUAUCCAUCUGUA has 3' UTR reporter interaction score at least equal to -0.2. no

Could you verify whether the entry GUUGUGUCAGUUUAUCAAAC shows 3' UTR reporter interaction score of no less than -0.2? yes

For this sequence, is measured 3' UTR reporter interaction score -0.2 or higher? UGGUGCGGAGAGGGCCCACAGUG no

Form field: 3' UTR reporter interaction score at least -0.2? Entry: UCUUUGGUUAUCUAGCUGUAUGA no

Has UCAAAUGCUCAGACUCCUGU a recorded 3' UTR reporter interaction score greater than or equal to -0.2? no

Quick check, 3' UTR reporter interaction score >= -0.2? UCCGUCUCAGUUACUUUAUAGCC yes

Does 3' UTR reporter interaction score meet or surpass -0.2 for AAACUACUGAAAAUCAAAGAU ? yes

Hi team, for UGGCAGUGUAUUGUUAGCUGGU , is the recorded 3' UTR reporter interaction score at or above -0.2? yes

Tell me whether 3' UTR reporter interaction score is at least -0.2 here: UAGCACCAUUUGAAAUCGGU yes

###

# System: HRAS
# test details: 3' UTR reporter interaction score (median-centred robust z-score of log2 firefly/Renilla activity); higher = less repression of the 3' UTR reporter
# reported conditions: HEK293T; 48 h
# label = 1 if 3' UTR reporter interaction score >= -0.07 else -1

Has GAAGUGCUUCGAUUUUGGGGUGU a recorded 3' UTR reporter interaction score greater than or equal to -0.07? 1

Is 3' UTR reporter interaction score for CUCUAGAGGGAAGCACUUUCU at or above -0.07? 1

Kindly determine if 3' UTR reporter interaction score recorded for UCUAGUAAGAGUGGCAGUCG is above or exactly -0.07. -1

Record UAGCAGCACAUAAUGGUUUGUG ; criterion: 3' UTR reporter interaction score no lower than -0.07. Met? 1

For this sequence, is measured 3' UTR reporter interaction score -0.07 or higher? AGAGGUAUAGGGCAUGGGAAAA -1

###

# Tested on: PHF6
# test details: 3' UTR reporter interaction score (median-centred robust z-score of log2 firefly/Renilla activity); higher = less repression of the 3' UTR reporter
# reported conditions: HEK293T; 48 h
Here the recorded 3' UTR reporter interaction score is given for each entry.
When you answer, write just the number.

AGCUACAUCUGGCUACUGGGUCUC; -0.555
AAGCAGCUGCCUCUGAGGC; 0.632
GGCUGGCUCGCGAUGUCUGUUU; 0.0685
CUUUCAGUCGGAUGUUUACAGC; -0.685
CCACACCGUAUCUGACACUUU; 0.504
AUCAACAGACAUUAAUUGGGCGC; -1.06

Could you share which 3' UTR reporter interaction score value was measured for CUGGACUUAGGGUCAGAAGGCC ? 0.77

Look up 3' UTR reporter interaction score: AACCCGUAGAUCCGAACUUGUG -0.96

May I ask what 3' UTR reporter interaction score has been recorded for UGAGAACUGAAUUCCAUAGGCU ? 0.668

###

Reported 3' UTR reporter interaction score values are given for each entry in this list.
# Test system: MYB
# test details: 3' UTR reporter interaction score (median-centred robust z-score of log2 firefly/Renilla activity); higher = less repression of the 3' UTR reporter
# reported conditions: HEK293T; 48 h
Hey, just send me the number, nothing else.

Worked cases, answers included:
ACUCAAAACCCUUCAGUGACUU; -1.17
AAAGUGCUUCCUUUUAGAGGC; -0.24
ACUUGGGCACUGAAACAAUGUCC; -0.103
AAAAGUGCUUACAGUGCAGGUAGC; -0.0116

Please turn your attention to the following entry.
// 3' UTR reporter interaction score lookup, key: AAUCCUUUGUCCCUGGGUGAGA -0.9

###

# Tested on: NOTCH1
# test details: 3' UTR reporter interaction score (median-centred robust z-score of log2 firefly/Renilla activity); higher = less repression of the 3' UTR reporter
# reported conditions: HEK293T; 48 h
3' UTR reporter interaction score values, listed per item
Simply state the number, no unit and no words.

Consider the reported 3' UTR reporter interaction score for these sequences:
UAAUACUGCCGGGUAAUGAUGG; -0.992
UCUACAAAGGGAAGCCCUUUCUG; -0.427
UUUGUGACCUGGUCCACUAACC; 0.65
GUGCCUACUGAGCUGAUAUCAGU; -1.95

Record request: 3' UTR reporter interaction score value, item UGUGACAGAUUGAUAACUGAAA 1.11

Given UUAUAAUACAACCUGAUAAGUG , state its recorded 3' UTR reporter interaction score. -0.345

###

# Tested on: EZH2
# test details: 3' UTR reporter interaction score (median-centred robust z-score of log2 firefly/Renilla activity); higher = less repression of the 3' UTR reporter
# reported conditions: HEK293T; 48 h
Label scheme for 3' UTR reporter interaction score: lower than -0.2 is Not fulfilled, -0.2 and above is Fulfilled.

AGCAGCAUUGUACAGGGCUAUCA; Not fulfilled

// inclusive: 3' UTR reporter interaction score at least -0.2? input: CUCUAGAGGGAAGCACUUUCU Fulfilled

Assess whether reported 3' UTR reporter interaction score for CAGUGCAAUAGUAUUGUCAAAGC sits at -0.2 or higher. Not fulfilled

Would you say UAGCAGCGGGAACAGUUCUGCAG shows 3' UTR reporter interaction score at minimum -0.2? Not fulfilled

###

# Test system: RB1
# test details: 3' UTR reporter interaction score (median-centred robust z-score of log2 firefly/Renilla activity); higher = less repression of the 3' UTR reporter
# reported conditions: HEK293T; 48 h
Label rule, in plain words: 3' UTR reporter interaction score of 0.2 and up is criterion met, under 0.2 is criterion not met.

Completed entries (count: 2):
AAAGUGCAUCCUUUUAGAGUGUUAC; criterion not met
GUGCCGCCAUCUUUUGAGUGU; criterion met

Item CUACAAAGGGAAGCACUUUCUC with 3' UTR reporter interaction score of 0.2 or above? criterion not met

Hello, I need to know if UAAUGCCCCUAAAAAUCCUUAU has measured 3' UTR reporter interaction score not below 0.2. Thanks! criterion not met

Assess whether reported 3' UTR reporter interaction score for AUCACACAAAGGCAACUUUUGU sits at 0.2 or higher. criterion met

Kindly determine if 3' UTR reporter interaction score recorded for UAUGUGGGAUGGUAAACCGCUU is above or exactly 0.2. criterion met

###

# System: MYC
# test details: 3' UTR reporter interaction score (median-centred robust z-score of log2 firefly/Renilla activity); higher = less repression of the 3' UTR reporter
# reported conditions: HEK293T; 48 h
property: 3' UTR reporter interaction score
Keep the answer to the number alone.

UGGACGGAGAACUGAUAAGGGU; -0.199
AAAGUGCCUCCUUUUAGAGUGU; 0.329
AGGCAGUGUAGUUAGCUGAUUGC; -1.05
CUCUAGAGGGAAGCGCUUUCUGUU; 0.337
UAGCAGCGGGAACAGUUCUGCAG; 0.339

So what does the record say about 3' UTR reporter interaction score for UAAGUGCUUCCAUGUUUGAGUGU ? -0.0168

Request the reported 3' UTR reporter interaction score associated with GUCCGCUCGGCGGUGGCCCA -0.572

For the sequence shown here, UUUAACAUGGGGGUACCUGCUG , give the reported 3' UTR reporter interaction score. -0.0461

Quick check: 3' UTR reporter interaction score of GAAAACAGCAAUUACCUUUGCA ? -0.413

Query: 3' UTR reporter interaction score; subject: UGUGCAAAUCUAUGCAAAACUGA -0.0223

# query: 3' UTR reporter interaction score of entry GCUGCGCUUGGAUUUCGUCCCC 0.388

Endpoint output: 3' UTR reporter interaction score of GUGCAUUGUAGUUGCAUUG . Value? -0.88

Param item = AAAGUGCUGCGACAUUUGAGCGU ; retrieve measured 3' UTR reporter interaction score. 0.745
